Just for reference, PubChem BioAssay (NCI) is where these values come from.

Method Description: NCI Yeast Anticancer Drug Screen. Data for the sgs1 mgt1 strain (AID 161);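 also: 0% = growth of cultures given vehicle only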
Setup Conditions: S. cerevisiae sgs1 mgt1 strain, at 50.0 µM, stronger effect = higher value
About 79,000 compounds went through this panel and 15% of them were active in at least one assay; those are over-represented in the sample as a whole.
Outcome Measure: growth inhibition (%)
Use % as the unit, but write only the number.

q: Need growth inhibition, item "CC(C)=CCC1=C(O)c2ccccc2C(=O)C1=O"
a: 14.2

q: What would you report for "CCCCSc1nc2ccccc2c(=O)[nH]1" ?
a: -4.6

q: Next entry: "O=C(c1ccccc1)c1c(O)c2ccccc2oc1=O"
a: -7.95

* * *

Method Description: NCI Yeast Anticancer Drug Screen. Data for the rad50 strain (AID 155);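 also: 0% = growth of vehicle-only cultures of the same strain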
Setup Conditions: S. cerevisiae rad50 strain growth inhibition; at 50.0 µM; stronger effect = higher value
Compounds without any hit were thinned out: in the full panel of roughly 79,000, 15% have a hit. Activity calls are given as the source filed them. Rule as the data show it: active = growth inhibition above about 70%; inactive = the rest.
Outcome Measure: growth inhibition

Molecule	growth inhibition
CCN(CCNc1cc(OC)cc2cccnc12)CC(C)C	22.8% (inactive)

q: Would you mind telling me what growth inhibition value was observed for "COc1cc(Nc2nc3cc(C(F)(F)F)ccc3nc2-c2ccccc2)cc(OC)c1OC" ?
a: 15.4% (inactive)

q: What do you have for "Cc1ccc(NC2=N/C(=C/c3ccco3)C(Cl)=N2)cc1" ?
a: -21.5% (inactive)

* * *

Method Description: NCI Yeast Anticancer Drug Screen. Data for the sgs1 mgt1 strain (AID 161);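 also: 0% = growth of cultures given vehicle only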
Setup Conditions: S. cerevisiae sgs1 mgt1 strain, at 50.0 µM, stronger effect = higher value
This is part of a sample that, as a whole, favours compounds with a hit. Of some 79,000 tested, about 15% had one in any assay.
# Lookup of reported growth inhibition keyed by entry
Express your answer in %, writing the number without its unit.

Compound	Outcome Measure	Unit Of Measurement	Value
Cn1c2c(c(=O)c3c4[nH]c5c(c(=O)c4ccc31)CCCC5)CCCC2	growth inhibition	%	-15.1
CCOC(=O)/C(C#N)=C/c1cccc(Cl)c1	growth inhibition	%	38.9
C=C1OC(=O)C(N)=C1C(C)=O	growth inhibition	%	9.05
CC(C)CCC(C)C1CCC2C3CC/C(=N/Nc4ccc([N+](=O)[O-])cc4[N+](=O)[O-])C(C)(CCC(=O)O)C3CCC12C (stereo unspecified)	growth inhibition	%	-24.9
COC(=O)c1ccncc1	growth inhibition	%	-2.8
O=C(NC(CSC(=O)OCc1ccccc1)C(=O)Oc1ccc([N+](=O)[O-])cc1)OCc1ccccc1 (stereo unspecified)	growth inhibition	%	3.45
Cc1csc2nc(-c3ccncc3)cn12	growth inhibition	%	-14
CC1=C(C(=O)NNC(=O)CC#N)CC(C(=O)NNC(=O)CC#N)=C(C)N1	growth inhibition	%	-20.8

q: Entry "CCCCCCCCCCCCCCCCCN(C)C(=O)OCC" : reported growth inhibition = ?
a: -55.5

q: Let us now turn to CC(=O)OCC(OC(C)=O)C(OC(C)=O)C(OC(C)=O)C1OC(=O)C(OC(C)=O)C1OC(C)=O (stereo unspecified)
a: 3.8

q: Here is the next compound: "CCOC(=O)NCC(=O)NCC(=O)NCC(N)=O"
a: -12.9

* * *

# growth inhibition annotations
Method Description: NCI Yeast Anticancer Drug Screen. Data for the bub3 strain (AID 167)
Setup Conditions: S. cerevisiae bub3 mutant strain, at 50.0 µM, stronger effect = higher value
About 79,000 compounds went through this panel and 15% of them were active in at least one assay; those are over-represented in the sample as a whole.
Just the number in %, nothing appended.

Below, 2 compounds whose answers are already recorded.
Compound	Unit Of Measurement	growth inhibition
Clc1ccc2nc(/C=C/c3ccccc3)ccc2c1	%	6.9
CCCC(=O)Oc1c(Cl)cc(Cl)cc1-c1ccccc1	%	28.6

q: # get_value(readout='growth inhibition', item= C[C@H]1O[C@@H](C(C)(C)C)OC(=O)[C@@H]1C(OC(=O)c1ccccc1)c1cccc2ccccc12 (stereo partly drawn) )
a: -3.45

q: Try the compound "CNC(=O)c1ccccc1C(=N)c1ccccc1"
a: -9.65

q: Another compound to look at: "CN(C)Cc1ccccc1C=C(c1ccccc1)c1ccccc1"
a: 0.55

q: Query "OC/C(I)=C(I)\C(I)=C(\I)CO" next
a: 98.7

q: Try COC(=O)C(C)C1Sc2ccccc2NC1=O (stereo not drawn) next.
a: -16.6

q: Same thing, different compound: COC(=O)C1CC(=C(C)C)CCC1=O (stereo not drawn)
a: 8.7

q: How about "CC(=O)Nc1ccc(NC(=O)Nc2cc(Cl)ccc2C)cc1" ?
a: 17.8

q: What do you get for CC12CCC(=O)N1[C@@H](c1ccccc1)[C@@H](c1ccccc1)O2 (stereo partly drawn) ?
a: 3.65
